# Assay overview: Effect of verapamil, PEG 400 and EDTA on trans-enterocyte transport of CA
# Format: in vitro ADME, human
# Assay conditions: human, Caco-2, CA 50 μM, 1.5 h, + 5% PEG 400; read-out: Papp AP to BL
Assay endpoint: Papp A→B at 1.5 h, 50 μM

Consider `CC(C)c1cc2c(c(O)c1O)[C@@]1(C(=O)O)CCCC(C)(C)[C@@H]1CC2` . Its measured Papp A→B at 1.5 h, 50 μM is 2.35 ×10⁻⁶ cm/s

====

# Assay overview: Effect of verapamil, PEG 400 and EDTA on trans-enterocyte transport of CA
# Type: in vitro ADME, human
# Assay conditions: human, Caco-2, with verapamil 100 μmol/L, CA 100 μM, 3.0 h, + 100 μmoL/L verapamil; read-out: Papp AP to BL
Assay endpoint: Papp A→B at 3 h, 100 μM (×10⁻⁶ cm/s)
# output: bare number, implied unit ×10⁻⁶ cm/s

Looking up CC(C)c1cc2c(c(O)c1O)[C@@]1(C(=O)O)CCCC(C)(C)[C@@H]1CC2 [CA, Carnosic acid] , I found its Papp A→B at 3 h, 100 μM recorded as 1.09
